The origin of these recorded values is PubChem BioAssay AID248.

What T/C was measured for each of the following?
Tested on: L1210 leukemia ip in BDF1 mice, survival T/C
Assay remarks: NCI In Vivo Anticancer Drug Screen. Data for tumor model L1210 Leukemia (intraperitoneal) in B6D2F1 (BDF1) mice
Test context: endpoint: mean survival time; dose: 200.0 mg/kg/injection; schedule: Q01DX009 (ip); vehicle: Klucel (hydroxypropylcellulose) (HPC); higher = longer survival
Protocol: The antitumor activity of compounds was measured in mice bearing transplantable tumors. Survival or tumor size were measured and the results are expressed as the measurement made in the treated group (T) divided by the measurement made in the vehicle treated control group (C). The tumor model used in this assay is L1210 Leukemia (intraperitoneal) in B6D2F1 (BDF1) mice
Toxic doses and inconclusive results are not listed.

Which value of T/C has been reported for Cc1cc(C)c(-c2c(C)cc(C)cc2CBr)c(CBr)c1 in the records?
99 % of control

Tell me the measured T/C of O=C(NC(CS)C(=O)O)OCc1ccccc1 (stereo unspecified) , please.
98 % of control

For the molecule shown here, CCN(CC)c1ccc(/C=C/c2ccncc2)cc1 , give the reported T/C.
92 % of control

# input molecule: COC(=O)N(C1CCCCC1)C1CCCCC1 ; wanted: its T/C
96 % of control

Look at this molecule and give its reported T/C. COc1ccc(C(=O)N/N=C/c2ccc(Cl)cc2Cl)cc1
94 % of control

Which measured T/C value corresponds to C1=C2NNC(c3ccccc3)=C(c3ccccc3)C2=CCC1 (tested in a mixture with another compound) ?
90 % of control

###

System: L1210 leukemia ip in BDF1 mice, survival T/C
Assay remarks: NCI In Vivo Anticancer Drug Screen. Data for tumor model L1210 Leukemia (intraperitoneal) in B6D2F1 (BDF1) mice
Test context: endpoint: mean survival time; dose: 400.0 mg/kg/injection; schedule: Q01DX009 (ip); vehicle: saline; higher = longer survival
Inconclusive results and toxic doses are left out.
Would you kindly list T/C for each of these molecules?

Dear colleague, I am looking for the recorded T/C of the following molecule: COc1ccc2c(c1)CN(S(=O)(=O)c1ccc(C)cc1)CCC2=O
95 % of control

Give the measured T/C of [O]=[Sn]1[O][Bi]([O][Sn](=[O])[O][Bi]2[O][Sn](=[O])[O]2)[O]1 .
92 % of control

So what's the measured T/C for this one? COC(=O)c1ccc(C)nc1OC/C=C(\C)CCC=C(C)C
106 % of control

Suppose we examine the molecule CC(=O)/C=C/c1ccc2c(c1)OCO2 ; what T/C value has been reported?
102 % of control

# query: T/C of entry Nc1cc(=O)[nH][nH]1
120 % of control

# get_value(readout='T/C', item= CC(=O)NS(=O)(=O)c1ccc(N=Cc2cc(Cl)cc(Cl)c2O)cc1 )
102 % of control

Name the reported T/C value associated with the molecule O=C(Nc1cccc(Cl)c1)Oc1ccc2ccccc2c1
101 % of control

Reported T/C, molecule O=c1cc(-c2ccc(S(=O)(=O)F)cc2)[nH]c2ccc([N+](=O)[O-])cc12 : ____
100 % of control

Data request, read-out T/C, for O=C1O/C(=C/c2ccccc2)C2CCCCC12 (configuration not stated)
95 % of control

Need T/C, item Cc1ccc(S(=O)(=O)C2=C(c3ccccc3)c3ccccc3CC2)cc1
93 % of control

# input molecule: C1CCC(C2OCCO2)CC1 ; wanted: its T/C
88 % of control

Fill in the blank: the reported T/C of CC(=O)NCCc1ccc(NCCCc2c(-c3ccccc3)nc(N)[nH]c2=O)cc1 is ____.
101 % of control

Which T/C value belongs to CC(C)N(C(=S)S)C(C)C ?
103 % of control

Quick one: T/C for CCCCCC(O)CCCCC ?
113 % of control

Suppose we examine the molecule CN(C)CCC(=O)O ; what T/C value has been reported?
94 % of control

Please give the measured T/C for this molecule: COc1c(C)c2c(c(O)c1C/C=C(\C)CCC(=O)O)C(=O)OC2
124 % of control

# lookup: T/C of c1ccc(CC(Cc2ccccc2)CN2CCCC2)cc1
103 % of control

###

Tested on: L1210 leukemia ip in BDF1 mice, survival T/C
Assay remarks: NCI In Vivo Anticancer Drug Screen. Data for tumor model L1210 Leukemia (intraperitoneal) in B6D2F1 (BDF1) mice
Test context: endpoint: mean survival time; dose: 50.0 mg/kg/injection; schedule: Q01DX001 (ip); vehicle: Klucel (hydroxypropylcellulose) (HPC); higher = longer survival
Inconclusive results and toxic doses are left out.
For each entry below, report its T/C value.

Return reported T/C; argument: CN(C)c1ccc(C(C#N)C(C#N)c2ccccc2)cc1 (centres undefined)
88 % of control

Entry under review: C1=Cc2c3c(c4c(c2C1)C=CC4)CC=C3 . Reported T/C?
97 % of control

Which T/C is listed for COc1ccccc1N=Nc1c(O)n(-c2ccc(C)cc2)c(=S)n(-c2ccc(C)cc2)c1=O ?
86 % of control

Consider the molecule shown here: CCCCCOC(=O)c1ccccc1C(=O)OCCCCC What is its recorded T/C?
103 % of control

If you can, please state the reported T/C value of CCSCC1OC(n2cnc3c(N)nc(F)nc32)C(O)C1O (centres undefined) .
104 % of control

Item CC(C)(Cl)/N=N/C(C)(C)Cl has what recorded T/C?
92 % of control

Could you share which T/C value was measured for COc1ccc(NC(=O)CCc2ccccc2)cc1 ?
93 % of control

Can you share its T/C? I mean this molecule: COc1c(NC(=O)CC(C)=O)ccc2c(C)cc(=O)n(C)c12
103 % of control

Query (molecule): OCCOc1c(Cl)c(C(Cl)(Cl)Cl)nc2ccccc12 ; field requested: T/C
106 % of control

###

System: L1210 leukemia ip in BDF1 mice, survival T/C
Assay remarks: NCI In Vivo Anticancer Drug Screen. Data for tumor model L1210 Leukemia (intraperitoneal) in B6D2F1 (BDF1) mice
Test context: endpoint: mean survival time; dose: 100.0 mg/kg/injection; schedule: Q01DX001 (ip); vehicle: saline with Tween-80; higher = longer survival
Toxic doses and inconclusive results are not listed.
Parameter measured: T/C

Query for L1210 leukemia ip in BDF1 mice, survival T/C: what T/C does the record show for Fc1c(F)c(F)c(-c2c(F)c(F)c(-c3c(F)c(F)c(-c4c(F)c(F)c(F)c(F)c4F)c(F)c3F)c(F)c2F)c(F)c1F ?
88 % of control

Kindly state the measured T/C obtained for CCCCC(CC1CCCCC1)C(=O)O (configuration not stated) with L1210 leukemia ip in BDF1 mice, survival T/C.
91 % of control

Form field - read-out: T/C; system: L1210 leukemia ip in BDF1 mice, survival T/C; submitted item: CC1(C)N=C(N)N=C(N)N1c1ccc(CCc2ccc(S(=O)(=O)F)cc2)cc1
97 % of control

API: value(readout=T/C, system=L1210 leukemia ip in BDF1 mice, survival T/C) for record CC12CCC(CC1)C(O)C2 (configuration not stated)
104 % of control

GET /values?readout=T/C&system=L1210 leukemia ip in BDF1 mice, survival T/C&item= C/C=C/CS(=O)(=O)Cc1ccccc1
103 % of control

// lookup T/C | system=L1210 leukemia ip in BDF1 mice, survival T/C | key= Nc1nc2ncsc2c(=O)[nH]1
89 % of control

API: value(readout=T/C, system=L1210 leukemia ip in BDF1 mice, survival T/C) for record O=C(/C=C/c1ccccc1)NC(=S)Nc1cc(C(F)(F)F)ccc1Cl
103 % of control

// fetch L1210 leukemia ip in BDF1 mice, survival T/C T/C for Cc1ccc2cccc(CC(=O)NN)c2c1
92 % of control

Missing value: T/C, L1210 leukemia ip in BDF1 mice, survival T/C, entry CCOC(=O)CCC(NC(=O)c1ccc(NCc2nnc3nc(N)nc(SCc4ccccc4)c3n2)cc1)C(=O)OCC (configuration not stated) . Fill in?
103 % of control

// map CCOC(=O)/C=C/c1c(Cl)nc2ccccn2c1=O to recorded T/C (system: L1210 leukemia ip in BDF1 mice, survival T/C)
96 % of control

Reported T/C for L1210 leukemia ip in BDF1 mice, survival T/C, given CN(C)C1CCC(Nc2nc(Nc3cc(Cl)cc(Cl)c3)nc3ccccc23)CC1 (configuration not stated) ?
95 % of control

Which measured T/C belongs to O=C(Nc1ccc(Cl)cc1)OCC#CCOC(=O)Nc1ccc(Cl)cc1 , tested on L1210 leukemia ip in BDF1 mice, survival T/C?
90 % of control

###

Test system: L1210 leukemia ip in BDF1 mice, survival T/C
Assay remarks: NCI In Vivo Anticancer Drug Screen. Data for tumor model L1210 Leukemia (intraperitoneal) in B6D2F1 (BDF1) mice
Test context: endpoint: mean survival time; dose: 150.0 mg/kg/injection; schedule: Q01DX001 (ip); vehicle: carboxymethylcellulose (CMC); higher = longer survival
Toxic doses and inconclusive results are not listed.
Parameter measured: T/C

Which T/C is reported with L1210 leukemia ip in BDF1 mice, survival T/C for this entry: Oc1ccc(CN2CCCCC2)c2cccnc12 ?
106 % of control

Report T/C for CCC(CC)NC(CC)CO (centres undefined) tested on L1210 leukemia ip in BDF1 mice, survival T/C.
100 % of control

Requested read-out T/C, target or system L1210 leukemia ip in BDF1 mice, survival T/C, entry COc1cccc(N=Nc2c(N)nc(N)nc2N)c1
100 % of control

T/C of CCC(=O)NC1=CC(=O)c2ccccc2C1=O on L1210 leukemia ip in BDF1 mice, survival T/C?
97 % of control
